Entry source: ChEMBL document CHEMBL4152271

The molecules listed here are annotated with their Emax.
target_desc: Cannabinoid receptor 2 (Homo sapiens, UniProt P34972)
Sequence (P34972 whole entry): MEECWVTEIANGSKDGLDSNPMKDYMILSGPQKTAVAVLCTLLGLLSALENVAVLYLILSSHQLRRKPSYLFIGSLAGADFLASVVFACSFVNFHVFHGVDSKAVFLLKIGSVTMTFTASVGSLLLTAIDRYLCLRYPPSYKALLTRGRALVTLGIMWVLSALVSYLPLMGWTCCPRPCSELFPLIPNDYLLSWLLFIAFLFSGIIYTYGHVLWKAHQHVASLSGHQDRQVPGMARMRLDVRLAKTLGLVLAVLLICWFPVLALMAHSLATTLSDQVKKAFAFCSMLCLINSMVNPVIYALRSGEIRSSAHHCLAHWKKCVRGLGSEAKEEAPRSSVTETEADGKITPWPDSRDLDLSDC
method_description: Agonist activity at human CB2 receptor expressed in CHO cell membranes after 90 mins by [35S]GTPgammaS binding assay relative to control
Assay type: functional
Expressed in %, but write only the number.

A selection of reference data follows.
{"chemical_string": "Cc1c(Br)cnc(OCc2ccc(F)cc2)c1C(=O)NC1CCCCCC1", "units_of_measure": "%", "measured": 125}
{"chemical_string": "Cc1c(-c2ccccc2)cn(Cc2ccc(F)cc2)c(=O)c1C(=O)NC1CCCCCC1", "units_of_measure": "%", "measured": 39}
{"chemical_string": "COc1ccc(-c2cn(Cc3ccc(F)cc3)c(=O)c(C(=O)NC3CCCCCC3)c2C)cc1", "units_of_measure": "%", "measured": 99}

Exercise: System Cannabinoid receptor 2 (Homo sapiens, UniProt P34972). Read-out Emax. Item COc1ccc(C(=O)c2c(C)n(CCN3CCOCC3)c3cc(I)ccc23)cc1 . Report value.
Solution: 35

Exercise: System Cannabinoid receptor 2 (Homo sapiens, UniProt P34972). Read-out Emax. Item O=C(NC1CCCCCC1)c1c(-c2ccccc2)c(Br)cn(Cc2ccc(F)cc2)c1=O . Report value.
Solution: 176
